Experiment: Circular dichroism, secondary structure content (CONTIN/LL)
Assay type: physicochemical
Conditions: water, 0.3mg in 1mL, 20°C, far-UV CD, CONTIN/LL
Ends that are not written are not given here.
endpoint: Secondary Structure β-Sheet (%)
Give the number; % is assumed, so skip it.

Problem: What value of Secondary Structure β-Sheet has been recorded for this entry: PKKKRKVWHWLQLKPGQPMY [NLS-α]
Result: 28

Problem: What value of Secondary Structure β-Sheet has been recorded for this entry: KRRWRFVWMNPKKKRKVPPWPYLLWWHWLQLKPGQPMY [chimera]
Result: 33

Problem: What value of Secondary Structure β-Sheet has been recorded for this entry: FRKWRRKPKKKRKVWWRKVKRRWHWLQLKPGQPMY [NLS-α-CE]
Result: 30

Problem: What value of Secondary Structure β-Sheet has been recorded for this entry: WRFVWMNPKKKRKV [NLS-CE, optimized NLS fitting CPP rules]
Result: 31

Reference source: paper PMC4838304
